Assay: ovarian cancer cell viability with rucaparib, profiling panel, oncology-focused library, rucaparib conditional (AID 1508598)
Conditions: patient-derived ovarian cancer cells, CellTiter-Glo viability, 144 h; at 0.00122 µM; OCI-P5x cells; without rucaparib
Activity calls are given as the source filed them.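 Rule for the calls: active = normalized viability below 100% at a tested concentration; inactive = the rest.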
Hi! Could you answer with just one of these? 1 for active, -1 for inactive

Q: Answer briefly: the call reported for `O=C(O[C@@H]1Cc2c(O)cc(O)cc2O[C@@H]1c1cc(O)c(O)c(O)c1)c1cc(O)c(O)c(O)c1` in this assay.
Ans: 1

Q: Same question, `Cc1ccc(-n2nc(C(C)(C)C)cc2NC(=O)Nc2ccc(OCCN3CCOCC3)c3ccccc23)cc1` this time
Ans: -1

Q: Same question, `CCN(CC)CCNC(=O)c1c(C)[nH]c(/C=C2\C(=O)Nc3ccc(F)cc32)c1C` this time
Ans: 1

Q: Same question, `CN(N=O)C(=O)N[C@@H]1[C@@H](O)[C@H](O)[C@@H](CO)O[C@@H]1O` this time
Ans: -1

Q: Same question, Nc1cccc2c1CN(C1CCC(=O)NC1=O)C2=O (stereo unspecified) this time
Ans: -1

Q: Same question, `CCCC(CCC)C(=O)O` this time
Ans: -1

Q: Same question, `CN(C)c1nc(N(C)C)nc(N(C)C)n1` this time
Ans: 1

Q: Same question, `Cc1cc(O)c2c(c1)C(=O)c1cccc(O)c1C2=O` this time
Ans: 1

Q: Same question, `COc1cc2ncnc(Nc3ccc(F)c(Cl)c3)c2cc1OCCCN1CCOCC1` this time
Ans: -1

Q: Same question, `CC(C)C[C@H](NC(=O)[C@H](Cc1ccccc1)NC(=O)c1cnccn1)B(O)O` this time
Ans: 1

Q: Same question, `Cc1ccc(Nc2nccc(N(C)c3ccc4c(C)n(C)nc4c3)n2)cc1S(N)(=O)=O` this time
Ans: 1

====

Would you kindly list inhibition for each of these compounds?
Test: human astrocyte viability loss, single and combined drugs, cytotoxicity control for chromothriptic childhood tumor combination screen, cell-based, BGB or cisplatin IC20 combos (AID 1671460);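 note: cells exposed to compounds for 96 hours before viability readout; 0% = vehicle and 100% = killing control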
Conditions: Human astrocytes, drug combinations, at 0.5 µM, stronger effect = higher value
Numbers only, in %.

{"columns": ["compound", "inhibition [%]"],
 "data": [
  ["CCn1nc(C(=O)O)c(=O)c2cc3c(cc21)OCO3", 10.8],
  ["O=c1cc[nH]c(=O)[nH]1", -8.86]
]}

Go through the list and state inhibition for each entry.
1. CN1CCN(c2c(F)cc3c(=O)c(C(=O)O)cn(CCF)c3c2F)CC1
2. Nc1ncn([C@H]2C[C@H](O)[C@@H](CO)O2)c(=O)n1

Ans:
1. 5.13
2. 26.9

Go through the list and state inhibition for each entry.
1. Cc1ccc2nc(N)[nH]c(=O)c2c1Sc1ccncc1
2. C[C@@H](CN1CC(=O)NC(=O)C1)N1CC(=O)NC(=O)C1
3. CNC1CCCN(c2c(F)cc3c(=O)c(C(=O)O)cn(C4CC4)c3c2OC)C1 (stereo not given)
4. O=C(CCCCCCC(=O)Nc1ccccc1)NO
5. CN1C[C@@H]2C[C@H]1CN2c1cc2c(cc1F)c(=O)c(C(=O)O)cn2C1CC1
6. N=C(N=C(N)N)N1CCOCC1

Ans:
1: -6.91; 2: 0.89; 3: 2.51; 4: -0.71; 5: -25.7; 6: 2.04

====

Test: differential killing of epithelial or mesenchymal cells, primary screen, imaging, PC-3E GFP, TEM4-18 mCherry, co-culture (AID 1345086);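 note: cells exposed to compound for 72 h before imaging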
Conditions: imaging cell counts, measured here: epithelial PC-3E GFP cell survival, at 1 µM
Label T when normalised cell number is strictly below 1; otherwise label F.

Example cases with answers are listed next.
{"columns": ["molecule", "answer-label"],
 "data": [
  ["CC(C)=CCC/C(C)=C/CC/C(C)=C/CO", "F"],
  ["Cc1c(F)c(N2CCNC(C)C2)cc2c1c(=O)c(C(=O)O)cn2C1CC1 (stereo unspecified)", "F"],
  ["CC(=O)N[C@@H](CCC(N)=O)C(=O)O", "T"]
]}

Attention now turns to another entry.
Q: State whether 1 exceeds normalised cell number recorded for `N[C@H](Cc1ccccc1)C(=O)O` .
Ans: T

====

Biological target: 6-phosphogluconate dehydrogenase, decarboxylating (Homo sapiens) (UniProt P52209)
Sequence (P52209 whole entry, looked up): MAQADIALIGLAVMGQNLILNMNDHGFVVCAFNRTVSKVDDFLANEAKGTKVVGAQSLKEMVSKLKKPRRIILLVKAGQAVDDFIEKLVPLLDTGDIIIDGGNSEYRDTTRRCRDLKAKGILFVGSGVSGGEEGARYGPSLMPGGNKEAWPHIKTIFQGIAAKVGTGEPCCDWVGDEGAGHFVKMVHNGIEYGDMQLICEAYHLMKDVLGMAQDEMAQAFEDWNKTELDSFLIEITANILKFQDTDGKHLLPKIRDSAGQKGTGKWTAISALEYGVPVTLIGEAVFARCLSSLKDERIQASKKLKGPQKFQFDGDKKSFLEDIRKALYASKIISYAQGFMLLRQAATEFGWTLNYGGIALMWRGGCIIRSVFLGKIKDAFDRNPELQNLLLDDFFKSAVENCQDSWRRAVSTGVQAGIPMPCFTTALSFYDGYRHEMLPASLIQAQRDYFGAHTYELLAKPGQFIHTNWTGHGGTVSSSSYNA
Assay: 6PGD enzyme inhibitors, primary screen, biochemical, human, recombinant enzyme, NADPH absorbance (AID 1159550)
Details: recombinant 6PGD, NADPH absorbance 341 nm; at 10 µM; stronger effect = higher value
Would you kindly list inhibition for each of these molecules?
Answers are plain numbers, in %.

Guide cases for inhibition, answers given:
{"columns": ["molecule", "meas-value"],
 "data": [
  ["C[C@H](CCC(=O)O)[C@H]1CC[C@H]2[C@@H]3CC[C@@H]4C[C@H](O)CC[C@]4(C)[C@H]3C[C@H](O)[C@]12C", -3.07],
  ["CC1=C(/C=C/C(C)=C/C=C/C(C)=C/CO)C(C)(C)CCC1", -7.77],
  ["O=C(/C=C/C(=O)Oc1ccccc1C(=O)O)Oc1ccccc1C(=O)O", -15.7]
]}

Go through the list and state inhibition for each entry.
1. C=C1c2c(Cl)ccc(O)c2C(O)=C2C(=O)[C@]3(O)C(O)=C(C(N)=O)C(=O)[C@@H](N(C)C)[C@@H]3[C@@H](O)[C@H]12
2. NC(=O)CC[C@H](N)C(=O)O
3. CCc1ccc(CCOc2ccc(CC3SC(=O)NC3=O)cc2)nc1 (configuration not stated)

Ans:
1. 10.5
2. -0.19
3. 6.81

Go through the list and state inhibition for each entry.
1. CC(C)=CCC[C@](C)(O)C1CC=C(C)CC1 (some centres not stated)
2. OC[C@@H](O)C(O)[C@H](O)CO
3. COc1ccc([C@@H]2CC(=O)c3c(O)cc(O[C@@H]4O[C@H](CO[C@@H]5O[C@@H](C)[C@H](O)[C@@H](O)[C@H]5O)[C@@H](O)[C@H](O)[C@H]4O)cc3O2)cc1O
4. CC(=O)/C=C\[C@@H]1[C@@]2(C)CCCC(C)(C)C2CC[C@@]1(C)O (some centres not stated)
5. O=C(CC(=O)c1ccccc1)c1ccccc1
6. COC(=O)/C(=C1/OC(=O)C(c2ccccc2)=C1O)c1ccccc1
7. CC(C)CCCC(C)C1CCC2C3CC(=O)[C@H]4CC(O)CCC4(C)C3CCC12C (some centres not stated)

Ans:
[1.33, -0.48, 1.33, 14.1, 21.3, 11.9, -4.09]

====

Experiment: sensitizers of A549 cells to miR-34 induction, primary screen, imaging, A549 dox-inducible miR-34, nuclei and caspase counts (AID 1347080)
Conditions: A549 miR-34 inducible, Hoechst nuclei count, 48 h; measured here: total cells without miR-34 induction
Bridge positions count the residues as written; N and C are the ends. Square brackets hold non-standard residues; d marks the D form. Peptide text beside a SMILES is read from it. * marks the point of attachment. Octanoyl(6-Me) = CCC(C)CCCCC(=O)*; Dab = NCC[CH](N)C(=O)O
property-name: cell count
One number for each entry.

Go through the list and state cell count for each entry.
1. C=C1C[C@]23C[C@@]1(O)CC[C@H]2[C@@]12C=C[C@H](O)[C@@](C)(C(=O)O1)[C@H]2[C@@H]3C(=O)O
2. O=[N+]([O-])c1ccc(O)c2ncccc12
3. C#C[C@]1(OC(C)=O)CC[C@H]2[C@@H]3CCC4=CC(=O)CC[C@@H]4[C@H]3CC[C@@]21C
4. O=C(O)CCC(=O)OC[C@@H](NC(=O)C(Cl)Cl)[C@H](O)c1ccc([N+](=O)[O-])cc1
5. COc1ccc(-c2cc(=O)c3c(OC)c(OC)c(OC)c(OC)c3o2)cc1
6. C[C@@H](CN1CC(=O)NC(=O)C1)N1CC(=O)NC(=O)C1
7. CSc1ccc(C(=O)c2[nH]c(=O)[nH]c2C)cc1

Ans:
1. 8340
2. 2460
3. 9280
4. 12500
5. 7340
6. 8920
7. 8940

Go through the list and state cell count for each entry.
1. Cc1c(N)c(=O)n(-c2ccccc2)n1C
2. OCc1ccccn1
3. NC1(C(=O)O)CC1
4. CC(=O)[C@@]1(O)CCC2C3CCC4=CC(=O)CC[C@]4(C)C3CC[C@@]21C (stereo not given in full)
5. CC(C=CC=C(C)C=CC1=C(C)CCCC1(C)C)=CC=CC=C(C)C=CC=C(C)C=CC1=C(C)CCCC1(C)C
6. CN(C)CCCO[C@@H]1[C@H]2OC(C)(C)O[C@H]2O[C@@H]1[C@H](O)CO
7. O=c1[nH]c2cc(C(F)(F)F)c(N3CCOCC3)cc2n(CP(=O)(O)O)c1=O
8. CCCCC(CC)COC(=O)CC(C(=O)OCC(CC)CCCC)S(=O)(=O)O (stereo not given)

Ans:
1. 9790
2. 9160
3. 10200
4. 8840
5. 8840
6. 10100
7. 9850
8. 9510

Go through the list and state cell count for each entry.
1. Cc1ccc(Cl)c(OCC(O)CNC(C)(C)C)c1 (stereo not given)
2. CCC(C)CCCCC(=O)NC(CCN)C(=O)NC(C(=O)NC(CCN)C(=O)NC1CCNC(=O)C(C(C)O)NC(=O)C(CCN)NC(=O)C(CCN)NC(=O)C(CC(C)C)NC(=O)C(Cc2ccccc2)NC(=O)C(CCN)NC1=O)C(C)O (stereo not given) ({Octanoyl(6-Me)}-[Dab]T[Dab][Dab][Dab]FL[Dab][Dab]T; lactam 4-C; configuration not given here)
3. NCCCCN=C(N)N
4. Cc1cc2c(cc1CC(=O)c1sccc1S(=O)(=O)Nc1onc(C)c1Cl)OCO2
5. C#CC1(O)CC[C@H]2[C@@H]3CCC4=CCCC[C@@H]4[C@H]3CC[C@@]21C (stereo not given in full)

Ans:
1. 9990
2. 13200
3. 9670
4. 8950
5. 8740
